Target: Opioid receptor (Rattus norvegicus, UniProt P33533+P34975+P33535)
Test: In vitro opioid receptor binding competition against 1 nM [3H]- Naltrexone in the presence of 100 mM NaCl.
Format: protein assay
endpoint: IC50 (nM)
Give the value, in units of nM, as a plain number.

Below: 3 molecules and their reported IC50.
Oc1ccc2c3c1OC1C4(CCC5(O)[C@@H](C2)N(CC2CC2)CC[C@]315)CO4 (stereo in doubt; 12a); 2
C=C1CC2(CCC3(O)[C@H]4Cc5ccc(O)c6c5[C@@]3(CCN4C)C2O6)OC1=O (stereo in doubt; 6b); 880
C=C1C(=O)OC2C1CC1(O)[C@H]3Cc4ccc(O)c5c4[C@@]1(CCN3CC1CC1)C2O5 (some centres undefined); 7

API: the following record is the query input.
Prompt: Write down the reported IC50 (system: Opioid receptor (Rattus norvegicus, UniProt P33533+P34975+P33535)) of C=C1C(=O)OC2=C1CC1(O)[C@H]3Cc4ccc(O)c5c4[C@@]1(CCN3CC1CC1)C2O5 (some centres undefined)
Completion: 50
